tested on: A. fumigatus; test: Antifungal disk diffusion susceptibility test (CLSI M44); format: cell-based; settings: Aspergillus fumigatus; A. fumigatus; 150 μg/disc
For each of the compounds below, state its zone of inhibition at 150 µg/disc.
# number only, unit mm dropped from output

Specify zone of inhibition at 150 µg/disc for COc1cccc(NNC(=O)C(=O)NN)c1 and stop.
11

Specify zone of inhibition at 150 µg/disc for NNC(=O)C(=O)NNc1ccc(F)cc1 and stop.
20

Specify zone of inhibition at 150 µg/disc for COc1ccc(NNC(=O)C(=O)NN)cc1 and stop.
10

Specify zone of inhibition at 150 µg/disc for NNC(=O)C(=O)NNc1ccccc1 and stop.
22

====

For each of the compounds below, state its zone of inhibition at 500 µg/disc.
system: A. flavus; experiment: Antifungal disk diffusion susceptibility test (CLSI M44); type: cell-based; conditions: Aspergillus flavus; A. flavus; 500 μg/disc

Specify zone of inhibition at 500 µg/disc for NNC(=O)CC(=O)NNc1ccccc1 and stop.
36 mm

Specify zone of inhibition at 500 µg/disc for NNC(=O)C(=O)NNc1ccc(F)cc1 and stop.
> 40 mm

Specify zone of inhibition at 500 µg/disc for NNC(=O)C(=O)NNc1ccc(Cl)cc1 and stop.
< 10 mm

Specify zone of inhibition at 500 µg/disc for NNC(=O)C(=O)NNc1ccccc1 and stop.
> 40 mm

Specify zone of inhibition at 500 µg/disc for NNC(=O)C(=O)NNc1ccc(Br)cc1 and stop.
< 10 mm

Specify zone of inhibition at 500 µg/disc for COc1cccc(NNC(=O)C(=O)NN)c1 and stop.
> 40 mm

Specify zone of inhibition at 500 µg/disc for COc1ccc(NNC(=O)C(=O)NN)cc1 and stop.
9 mm

Specify zone of inhibition at 500 µg/disc for Cc1ccc(NNC(=O)C(=O)NN)cc1 and stop.
< 10 mm

====

tested on: A. niger; experiment: Antifungal disk diffusion susceptibility test (CLSI M44); assay type: cell-based; settings: Aspergillus niger; A. niger; 150 μg/disc
For each of the molecules below, state its zone of inhibition at 150 µg/disc.
# number only, unit mm dropped from output

Specify zone of inhibition at 150 µg/disc for NNC(=O)C(=O)NNc1ccc(F)cc1 and stop.
15

Specify zone of inhibition at 150 µg/disc for COc1ccc(NNC(=O)C(=O)NN)cc1 and stop.
27

Specify zone of inhibition at 150 µg/disc for NNC(=O)C(=O)NNc1ccccc1 and stop.
24

Specify zone of inhibition at 150 µg/disc for Cc1ccc(NNC(=O)C(=O)NN)cc1 and stop.
22

Specify zone of inhibition at 150 µg/disc for NNC(=O)C(=O)NNc1ccc(Br)cc1 and stop.
10

Specify zone of inhibition at 150 µg/disc for NNC(=O)C(=O)NNc1ccc(Cl)cc1 and stop.
10

Specify zone of inhibition at 150 µg/disc for COc1cccc(NNC(=O)C(=O)NN)c1 and stop.
32

====

For each of the molecules below, state its zone of inhibition at 150 µg/disc.
Tested on: C. guillermondii
Experiment: Antifungal disk diffusion susceptibility test (CLSI M44)
Assay type: cell-based
Settings: C. guillermondii; 150 μg/disc
Procedure: Filamentous fungi and yeasts strains, from clinical origin, were supplied by Microbiology Service from The Princess Hospital, Madrid. They are detailed in Table IX. Filamentous fungi and yeast cells suspensions in distilled water was prepared from a culture of 24-48 h, depending on species, in Sabouraud agar. Each suspension was adjusted to a fixed size inoculum of 1-5×10^8 CFU/ml with a spectrophotometer (Ferraro, MJ National Committee for Clinical Laboratory Standards. 2000). […]
# number only, unit mm dropped from output

Specify zone of inhibition at 150 µg/disc for NNC(=O)C(=O)NNc1ccc(F)cc1 [MSG-193] and stop.
20

Specify zone of inhibition at 150 µg/disc for NNC(=O)C(=O)NNc1ccc(Br)cc1 [MSG-216] and stop.
13

Specify zone of inhibition at 150 µg/disc for NNC(=O)C(=O)NNc1ccc(Cl)cc1 [MSG-214] and stop.
15

Specify zone of inhibition at 150 µg/disc for COc1ccc(NNC(=O)C(=O)NN)cc1 [MSG-210] and stop.
32

Specify zone of inhibition at 150 µg/disc for NNC(=O)C(=O)NNc1ccccc1 [MSG-119] and stop.
12

Specify zone of inhibition at 150 µg/disc for Cc1ccc(NNC(=O)C(=O)NN)cc1 [MSG-218] and stop.
22
